System: 786-0 renal
Experiment: NCI-60 one-dose screen, 48 h
Settings: 10 µM unless noted
Compounds without any hit were thinned out: in the full panel of roughly 83,000, 20% have a hit. Active and inactive are the calls of the source. How the source made its calls: active means growth percent below 10; inactive means the rest.
Classes used: true (1) for active, false (0) for inactive

1. C#Cc1ccc(NC(=O)Cc2ccc(/C=C/C(=O)c3nccn3C)cc2)cc1	false (0)
2. CN(C)C(=O)OCc1ccc2c(Cl)cc(Cl)c(O)c2n1	false (0)
3. O=C(CSc1nnc(-c2ccc(Cl)c(Cl)c2)n1-c1ccccc1)Nc1ccc(C(=O)/C=C/c2ccc(Cl)cc2)cc1	false (0)
4. COc1ccc(-c2cc(-c3ccc(Nc4nc(Nc5ccc(Cl)cc5)nc(Nc5ccc(Cl)cc5)n4)cc3)no2)cc1	false (0)
5. O=C1NCCN1/N=C/c1c(Cl)n(Cc2ccc(Cl)cc2)c2ccccc12	false (0)
6. CCOC(=O)/C(=C/c1ccc([N+](=O)[O-])cc1)C(=O)c1ccccc1	false (0)
7. Clc1nc(N2CCC[N+]3(CC2)CC[N+]2(CCCNCC2)CC3)nc(N2CCC[N+]3(CC2)CC[N+]2(CCCNCC2)CC3)n1 (centres undefined)	false (0)
8. COc1c(O[C@@H]2OC(CO)[C@H](O)[C@H](O)C2O)cc2oc3cc(O)c(CC=C(C)C)c(O)c3c(=O)c2c1CC=C(C)C (some centres undefined)	false (0)
9. COC(=O)c1c(C)nc(C)c2c1C(=O)C(Br)=C(NCCN1CCOCC1)C2=O	false (0)
10. c1ccc2cc(Cn3cc[n+](Cc4ccc5ccccc5c4)c3)ccc2c1	false (0)
11. COc1ccc(N2C(=O)/C(=C/C(Cl)=C/c3ccc([N+](=O)[O-])cc3)SC2=S)cc1	true (1)
12. O=C(OCc1ccc2c(Br)cc(Br)c(O)c2n1)N1CCN(C(=O)c2cc3ccccc3[nH]2)CC1	false (0)
13. COC(=O)CNC(=O)c1ccc(NC(=O)c2[nH]c(C)c(Cl)c2Cl)c(O[C@H]2CCNC2)c1	false (0)
14. CCCc1cc(CCC)n2nc(N)nc2n1	false (0)
15. CN1CCN(Cc2ccc(NC(=O)c3cncc(C#Cc4cnc(N)c5ccc(C#N)cc45)c3)cc2C(F)(F)F)CC1	true (1)
16. CN1CCN(Cc2ccc(NC(=O)c3cncc(C#Cc4c(N)ncc5c(F)cccc45)c3)cc2C(F)(F)F)CC1	true (1)
17. COc1cc(-c2ccc(-c3ccc(C(=N)N)s3)s2)cc(OC)c1OC	true (1)
18. CC1=C([Se]CC(OC(=O)[C@@H](CO)NC(=O)OC(C)(C)C)C(=O)NCCCCCC(=O)OCc2ccccc2)C(=O)c2ccccc2C1=O (some centres undefined)	true (1)
19. C(CCCSC1=NCCN1)CCSC1=NCCN1	false (0)
20. Nc1nc(Nc2ccc([N+](=O)[O-])cc2O)nc(C(Cl)(Cl)Cl)n1	false (0)
21. Cc1ccc(C(F)(F)F)cc1N1CCN(C(=O)[C@H]2C[C@H]2c2ccc(C(F)(F)F)nc2)CC1	false (0)
22. O=C(CN1C(=O)c2ccccc2S1(=O)=O)Nc1nc(-c2cc3ccccc3oc2=O)cs1	false (0)
23. Oc1ccc(C(c2ccc(O)cc2)c2ccc(Cl)cn2)cc1	false (0)
24. COc1cccc2cc(N(C)c3nc(C)nc4c3CCC4)ccc12	true (1)
25. c1ccc(-c2nc(N3CCNCC3)c3oc(-c4ccccc4)nc3n2)cc1	true (1)
26. CC(=O)c1c(/C=C/c2ccc(C)cc2)c2ccccc2[nH]c1=O	false (0)
27. Cc1ccc(-c2nc(C#N)c(S(=O)(=O)n3nc(C)cc3N)o2)cc1	false (0)
28. CC(=O)OCC(=O)O[C@@H]1C[C@]2(C(C)C)O[C@@]1(C)[C@@H]1CC[C@@H](C)[C@H]1[C@@H]2OC(=O)/C=C/c1ccccc1	false (0)
29. COc1cc2c(c(OC)c1OC)C(=O)CC(c1cccc(C(=O)Nc3ccc(Br)cc3)c1)O2 (centres undefined)	false (0)

Numbers sourced from PubChem BioAssay (NCI).
